Recorded relative viability for the following compounds
# Tested on: NCI-H661
# Assay comment: relative viability (nuclei count vs DMSO), 5 days (fraction); higher = more cells survive
# Run conditions: first compound 0.5 µM

{"Compound": "CC1(C)CCC(c2ccc(Cl)cc2)=C(CN2CCN(c3ccc(C(=O)NS(=O)(=O)c4ccc(N[C@H](CCN5CCOCC5)CSc5ccccc5)c(S(=O)(=O)C(F)(F)F)c4)cc3)CC2)C1 [Navitoclax] + CC(=O)Nc1cccc(-n2c(=O)n(C3CC3)c(=O)c3c(Nc4ccc(I)cc4F)n(C)c(=O)c(C)c32)c1 [Trametinib] (partner 0.02 µM)", "relative viability": 0.538}
{"Compound": "CC1(C)CCC(c2ccc(Cl)cc2)=C(CN2CCN(c3ccc(C(=O)NS(=O)(=O)c4ccc(N[C@H](CCN5CCOCC5)CSc5ccccc5)c(S(=O)(=O)C(F)(F)F)c4)cc3)CC2)C1 [Navitoclax] + Nc1ncn([C@H]2C[C@H](O)[C@@H](CO)O2)c(=O)n1 [Decitabine] (partner 2 µM)", "relative viability": 0.567}
{"Compound": "CC1(C)CCC(c2ccc(Cl)cc2)=C(CN2CCN(c3ccc(C(=O)NS(=O)(=O)c4ccc(N[C@H](CCN5CCOCC5)CSc5ccccc5)c(S(=O)(=O)C(F)(F)F)c4)cc3)CC2)C1 [Navitoclax] + CC(C)C[C@H](NC(=O)[C@H](Cc1ccccc1)NC(=O)c1cnccn1)B(O)O [Bortezomib] (partner 0.002 µM)", "relative viability": 0.668}
{"Compound": "CC1(C)CCC(c2ccc(Cl)cc2)=C(CN2CCN(c3ccc(C(=O)NS(=O)(=O)c4ccc(N[C@H](CCN5CCOCC5)CSc5ccccc5)c(S(=O)(=O)C(F)(F)F)c4)cc3)CC2)C1 [Navitoclax] + C[C@]1(O)C[C@@H](c2nc(-c3ccc4ccc(-c5ccccc5)nc4c3)c3c(N)nccn32)C1 [Linsitinib] (partner 1 µM)", "relative viability": 0.5}

---

# System: NCI-H1650
# Assay comment: relative viability (nuclei count vs DMSO), 5 days (fraction); higher = more cells survive
# Run conditions: first compound 1.265 µM
Field 'label' (enum: T / F). Set to T when relative viability is strictly under 0.3; else F.

{"Compound": "O=C(O)c1ccc(-c2c[nH]c3ncc(-c4ccccc4)cc23)cc1C1CCCC1 + CCNC(=O)c1noc(-c2cc(C(C)C)c(O)cc2O)c1-c1ccc(CN2CCOCC2)cc1 [Luminespib] (partner 0.01 µM)", "Category label": "T"}
{"Compound": "O=C(O)c1ccc(-c2c[nH]c3ncc(-c4ccccc4)cc23)cc1C1CCCC1 + CS(=O)(=O)N1CCN(Cc2cc3nc(-c4cccc5[nH]ncc45)nc(N4CCOCC4)c3s2)CC1 [Pictilisib] (partner 1 µM)", "Category label": "F"}
{"Compound": "O=C(O)c1ccc(-c2c[nH]c3ncc(-c4ccccc4)cc23)cc1C1CCCC1 + N=C(N)NC(=N)NCCc1ccccc1 [Phenformin] (partner 250 µM)", "Category label": "T"}
{"Compound": "O=C(O)c1ccc(-c2c[nH]c3ncc(-c4ccccc4)cc23)cc1C1CCCC1 + CC1(C)CCC(c2ccc(Cl)cc2)=C(CN2CCN(c3ccc(C(=O)NS(=O)(=O)c4ccc(N[C@H](CCN5CCOCC5)CSc5ccccc5)c(S(=O)(=O)C(F)(F)F)c4)cc3)CC2)C1 [Navitoclax] (partner 0.5 µM)", "Category label": "F"}
{"Compound": "O=C(O)c1ccc(-c2c[nH]c3ncc(-c4ccccc4)cc23)cc1C1CCCC1 + Nc1nc2[nH]cc(CCc3ccc(C(=O)N[C@@H](CCC(=O)O)C(=O)O)cc3)c2c(=O)[nH]1 [Pemetrexed] (partner 0.2 µM)", "Category label": "F"}
{"Compound": "O=C(O)c1ccc(-c2c[nH]c3ncc(-c4ccccc4)cc23)cc1C1CCCC1 + CC(C)C[C@H](NC(=O)[C@H](Cc1ccccc1)NC(=O)c1cnccn1)B(O)O [Bortezomib] (partner 0.002 µM)", "Category label": "T"}

---

# Tested on: NCI-H2009
# Assay comment: relative viability (nuclei count vs DMSO), 5 days (fraction); higher = more cells survive
# Run conditions: first compound 0.005 µM
Recorded relative viability for the following compounds
Parameter measured: relative viability

{"Compound": "CC1(C)CCC(c2ccc(Cl)cc2)=C(CN2CCN(c3ccc(C(=O)NS(=O)(=O)c4ccc(N[C@H](CCN5CCOCC5)CSc5ccccc5)c(S(=O)(=O)C(F)(F)F)c4)cc3)CC2)C1 [Navitoclax] + C[C@@H](Oc1cc(-c2cnn(C3CCNCC3)c2)cnc1N)c1c(Cl)ccc(F)c1Cl [Crizotinib] (partner 1 µM)", "Numeric readout": 0.972}
{"Compound": "CC1(C)CCC(c2ccc(Cl)cc2)=C(CN2CCN(c3ccc(C(=O)NS(=O)(=O)c4ccc(N[C@H](CCN5CCOCC5)CSc5ccccc5)c(S(=O)(=O)C(F)(F)F)c4)cc3)CC2)C1 [Navitoclax] + Cc1nc(Nc2ncc(C(=O)Nc3c(C)cccc3Cl)s2)cc(N2CCN(CCO)CC2)n1 [Dasatinib] (partner 0.075 µM)", "Numeric readout": 0.232}
{"Compound": "CC1(C)CCC(c2ccc(Cl)cc2)=C(CN2CCN(c3ccc(C(=O)NS(=O)(=O)c4ccc(N[C@H](CCN5CCOCC5)CSc5ccccc5)c(S(=O)(=O)C(F)(F)F)c4)cc3)CC2)C1 [Navitoclax] + Nc1ncn([C@H]2C[C@H](O)[C@@H](CO)O2)c(=O)n1 [Decitabine] (partner 2 µM)", "Numeric readout": 0.412}

---

# Test system: HCC-44
# Assay comment: relative viability (nuclei count vs DMSO), 5 days (fraction); higher = more cells survive
# Run conditions: first compound 2.53 µM
Field 'label' (enum: rule met / rule not met). Set to rule met when relative viability is strictly under 0.9; else rule not met.

{"Compound": "Oc1nc(-c2ccc(C(F)(F)F)cc2)nc2c1CSCC2 [XAV939] + Cc1cc(Nc2cc(N3CCN(C)CC3)nc(Sc3ccc(NC(=O)C4CC4)cc3)n2)n[nH]1 [Tozasertib] (partner 0.1 µM)", "Category label": "rule met"}
{"Compound": "C=C1C(=O)O[C@@H](CCCCCCCC)[C@@H]1C(=O)O [C-75] + O=C(CCCCCCC(=O)Nc1ccccc1)NO [Vorinostat] (partner 1 µM)", "Category label": "rule not met"}
{"Compound": "C=C1C(=O)O[C@@H](CCCCCCCC)[C@@H]1C(=O)O [C-75] + CC1(C)CCC(c2ccc(Cl)cc2)=C(CN2CCN(c3ccc(C(=O)NS(=O)(=O)c4ccc(N[C@H](CCN5CCOCC5)CSc5ccccc5)c(S(=O)(=O)C(F)(F)F)c4)cc3)CC2)C1 [Navitoclax] (partner 0.5 µM)", "Category label": "rule met"}

---

Recorded relative viability for the following compounds
# Test system: Calu-6
# Assay comment: relative viability (nuclei count vs DMSO), 5 days (fraction); higher = more cells survive
# Run conditions: first compound 1.265 µM

{"Compound": "O=C(O)c1ccc(-c2c[nH]c3ncc(-c4ccccc4)cc23)cc1C1CCCC1 + O=C(c1cc(Cc2n[nH]c(=O)c3ccccc23)ccc1F)N1CCN(C(=O)C2CC2)CC1 [Olaparib] (partner 8 µM)", "Study target": "Calu-6", "relative viability": 0.395}
{"Compound": "O=C(O)c1ccc(-c2c[nH]c3ncc(-c4ccccc4)cc23)cc1C1CCCC1 + COc1cc2c(Oc3ccc(NC(=O)C4(C(=O)Nc5ccc(F)cc5)CC4)cc3F)ccnc2cc1OCCCN1CCOCC1 [Foretinib] (partner 0.25 µM)", "Study target": "Calu-6", "relative viability": 0.706}
{"Compound": "O=C(O)c1ccc(-c2c[nH]c3ncc(-c4ccccc4)cc23)cc1C1CCCC1 + CC(C)C[C@H](NC(=O)[C@H](Cc1ccccc1)NC(=O)c1cnccn1)B(O)O [Bortezomib] (partner 0.002 µM)", "Study target": "Calu-6", "relative viability": 0.661}
{"Compound": "O=C(O)c1ccc(-c2c[nH]c3ncc(-c4ccccc4)cc23)cc1C1CCCC1 + C[C@@H](Oc1cc(-c2cnn(C3CCNCC3)c2)cnc1N)c1c(Cl)ccc(F)c1Cl [Crizotinib] (partner 1 µM)", "Study target": "Calu-6", "relative viability": 0.636}

---

Recorded relative viability for the following compounds
# System: A-427
# Assay comment: relative viability (nuclei count vs DMSO), 5 days (fraction); higher = more cells survive
# Run conditions: first compound 0.08 µM

{"Compound": "Oc1nc(-c2ccc(C(F)(F)F)cc2)nc2c1CSCC2 [XAV939] + CC(=O)Nc1cccc(-n2c(=O)n(C3CC3)c(=O)c3c(Nc4ccc(I)cc4F)n(C)c(=O)c(C)c32)c1 [Trametinib] (partner 0.02 µM)", "Study target": "A-427", "relative viability": 0.818}
{"Compound": "Oc1nc(-c2ccc(C(F)(F)F)cc2)nc2c1CSCC2 [XAV939] + CC(C)C[C@H](NC(=O)[C@H](Cc1ccccc1)NC(=O)c1cnccn1)B(O)O [Bortezomib] (partner 0.002 µM)", "Study target": "A-427", "relative viability": 1.06}
{"Compound": "C=C1C(=O)O[C@@H](CCCCCCCC)[C@@H]1C(=O)O [C-75] + CC(C)C[C@H](NC(=O)[C@H](Cc1ccccc1)NC(=O)c1cnccn1)B(O)O [Bortezomib] (partner 0.002 µM)", "Study target": "A-427", "relative viability": 1.01}
